Property: composite z-score; scope: individual compounds
- measured_target: Dihydroorotate dehydrogenase (quinone), mitochondrial (Plasmodium falciparum (isolate 3D7)) (UniProt Q08210)
- Sequence (Q08210 whole entry, looked up): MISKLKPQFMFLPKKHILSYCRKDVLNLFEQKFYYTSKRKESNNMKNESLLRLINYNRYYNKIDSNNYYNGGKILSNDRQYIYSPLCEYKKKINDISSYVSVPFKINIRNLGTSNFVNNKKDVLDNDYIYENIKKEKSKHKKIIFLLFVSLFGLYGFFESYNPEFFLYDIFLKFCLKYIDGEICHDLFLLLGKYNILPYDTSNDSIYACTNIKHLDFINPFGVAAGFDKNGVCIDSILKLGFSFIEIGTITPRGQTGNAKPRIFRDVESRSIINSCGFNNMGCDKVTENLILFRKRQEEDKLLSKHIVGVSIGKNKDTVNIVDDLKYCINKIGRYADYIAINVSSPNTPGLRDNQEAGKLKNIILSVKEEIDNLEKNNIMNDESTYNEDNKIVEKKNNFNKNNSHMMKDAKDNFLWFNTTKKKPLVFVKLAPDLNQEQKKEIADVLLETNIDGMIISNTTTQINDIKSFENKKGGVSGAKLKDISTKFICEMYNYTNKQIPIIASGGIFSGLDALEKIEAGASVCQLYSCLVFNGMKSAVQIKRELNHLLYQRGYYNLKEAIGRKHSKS
- assay_overview: PfDHODH enzyme inhibitors, primary screen, biochemical, C-terminal His tag, absorbance 600 nm (AID 1175);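 also: recombinant parasite enzyme with a five histidine tag at its C terminus; test concentration not given here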
- particulars: DCIP absorbance 600 nm, higher = more signal, called active from +8 up or from −8 down
Give your answer as a number; write no unit.

compound	composite z-score
O=C1c2ccccc2[C@](Cc2ccccc2I)(C(=O)NCCN2CCOCC2)[C@H](c2ccc(CO)cc2)N1Cc1ccccc1Cl	-0.0768
COc1ccccc1CN1C(=O)c2ccccc2[C@@]2(Cc3ccccc3N(CC(C)C)C2=O)[C@@H]1c1ccc(CO)cc1	-0.359
CN1C(=O)C2C=CC(C(O)c3ccccc3)N(N(c3ccccc3)c3ccccc3)C2C1=O (configuration not stated)	0.0002

Fill in: composite z-score of CC(C)=CCCC(C)=CC(O)C1C=CC2C(=O)N(C)C(=O)C2N1Nc1ccccc1 (configuration not stated) is ___
0.0684

Entry under review: `C=CCOC(=O)[C@H]1[C@@H]2C(=O)O[C@@H](c3ccccc3)[C@@H](c3ccccc3)N2[C@@H](c2ccc(OCCOC(=O)[C@H]3C[C@H]4C(=O)N[C@@H](CCCC[N+](C)(C)C)C(=O)N4[C@H]3c3ccc(O)cc3)cc2)[C@]12C(=O)Nc1ccc(I)cc12` . Reported composite z-score?
-0.24

Suppose we examine the compound O=C(OCc1ccccc1)C1=CCC2c3[nH]c4ccccc4c3C(=O)C1N2S(=O)(=O)c1ccccc1[N+](=O)[O-] (configuration not stated) ; what composite z-score value has been reported?
-0.386

Reported composite z-score for `O=C(NC1CC1)[C@@H]1c2ccccc2C(=O)N(Cc2ccccc2Cl)[C@H]1c1ccc(CO)cc1` : what is it?
-1.36

---

- assay_overview: CREB reporter modulators without forskolin, primary screen, cell-based, PC12, CRE-LacZ reporter, unstimulated (AID 1145)
- particulars: no forskolin, luminescence, 4.5 h, higher = more signal, called active from +8 up or from −8 down
result_type: z-score
Quick one: just the number, no unit, thanks!

molecule	result_type	data_value
COC(=O)[C@@]1(Cc2ccc(OC)cc2)[C@@H]2C(=CC(=O)[C@H]2CC(=O)C(=O)N2CCCC2)CN1C(=O)c1ccccc1	z-score	-0.754

Quick one: z-score for `C[N+](C)(C)CCCC[C@@H]1NC(=O)[C@H]2C[C@@H](C(=O)NCCCCCCNC(=O)CS)[C@@H](c3cccc(OCCO)c3)N2C1=O` ?
-0.683

Fill in: z-score of `CCS[C@H]1[C@@H](C(=O)O)[C@H](c2ccc(C)cc2)N(S(=O)(=O)c2ccc(C)cc2)[C@@H]1CC` is ___
-0.928

Any idea what its z-score is? The molecule is `C=CCOC(=O)[C@H]1[C@@H]2C(=O)O[C@@H](c3ccccc3)[C@@H](c3ccccc3)N2[C@@H](c2ccc(OCCOC(=O)[C@H]3C[C@H]4C(=O)N[C@@H](CCCCN(C)C)C(=O)N4[C@H]3c3ccc(O)cc3)cc2)[C@]12C(=O)Nc1ccc(I)cc12`
-0.268

Please look up its z-score: `CCOC(=O)C[C@H]1[C@H](OC(=O)c2cc3ccccc3oc2=O)[C@@H](NC(=O)c2ccccc2)c2cc(OCCCO)ccc2N1C(=O)c1ccc2ccccc2n1`
9.1
